- target: recombinant human glucokinase (Homo sapiens, UniProt P35557)
- Construct: Full-length glucokinase (beta cell isoform) was His-tagged at the N-terminus and purified by a Ni column followed by size exclusion chromatography as described above; His tag; made in house; host or cells: E. coli BL21(DE3), vector pBCGK
- Sequence (P35557 whole entry, canonical isoform): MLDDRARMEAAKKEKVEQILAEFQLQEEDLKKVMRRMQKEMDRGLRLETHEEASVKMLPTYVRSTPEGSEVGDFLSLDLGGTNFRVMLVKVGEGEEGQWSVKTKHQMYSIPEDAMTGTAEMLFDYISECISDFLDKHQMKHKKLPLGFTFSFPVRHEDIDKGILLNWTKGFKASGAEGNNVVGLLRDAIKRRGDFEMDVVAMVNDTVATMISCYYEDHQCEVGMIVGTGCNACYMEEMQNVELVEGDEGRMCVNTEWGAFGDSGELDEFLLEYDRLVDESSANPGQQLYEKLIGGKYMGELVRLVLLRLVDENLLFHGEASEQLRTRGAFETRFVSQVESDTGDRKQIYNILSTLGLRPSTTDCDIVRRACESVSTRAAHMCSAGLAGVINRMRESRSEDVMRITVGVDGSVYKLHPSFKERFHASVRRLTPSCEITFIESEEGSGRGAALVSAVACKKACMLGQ
- procedure summary: Assay 2: Evaluating Activator Potency in a Matrix Assay at Multiple Glucose Concentrations
- Format: biochemical
- study conditions: Glucokinase EC50, Assay 2 matrix assay; 16 glucose concentrations; intrinsic EC50 = concentration affording a 50% reduction in the enzyme's Km (for glucose)
property name: pEC50
pEC50 (log units): -log10 of the concentration in mol/L.

Prompt: Request - read-out pEC50 | tested on recombinant human glucokinase (Homo sapiens, UniProt P35557) | compound `Cc1cnc(NC(=O)c2cc(Oc3ccc(S(N)(=O)=O)cc3)c3cn(C)nc3c2)cn1`
Response: 5.64

Prompt: Request - read-out pEC50 | tested on recombinant human glucokinase (Homo sapiens, UniProt P35557) | compound `CCn1cc2c(Oc3cnc(C(=O)N4CCC4)c(F)c3)cc(C(=O)Nc3cnc(C)cn3)cc2n1`
Response: 6.97

Prompt: Request - read-out pEC50 | tested on recombinant human glucokinase (Homo sapiens, UniProt P35557) | compound `CCn1cc2c(Oc3cnc(C(=O)N4CCC4)c(F)c3)cc(C(=O)Nc3ccn(C)n3)cc2n1`
Response: 6.72

Prompt: Request - read-out pEC50 | tested on recombinant human glucokinase (Homo sapiens, UniProt P35557) | compound `Cc1cnc(NC(=O)c2cc(Oc3ccc(S(=O)(=O)N(C)C)cc3)c3cn(C)nc3c2)cn1`
Response: 6.37

Where these numbers come from: patent US20110319379A1
